Reference source: patent US10028992B2

What Results in α7+/− β-galactosidase assay was measured for each of the following?
- Test system: α7 integrin promoter
- Measurement notes: muscle cell-based assay: α7βgal+/− myoblasts/myotubes, LacZ reporter, β-galactosidase cleavage of FDG
- Parameters: species or system mouse; scale not given here
- Run parameters: Myotubes, 10 uM
// no unit string in output, number only

I am curious: what Results in α7+/− β-galactosidase assay value has been reported for Cc1cc(C)c(/C=C2\C(=O)Nc3ccccc32)[nH]1 [drawing 512] ?
0.09661

I am curious: what Results in α7+/− β-galactosidase assay value has been reported for O=C1Nc2ccccc2/C1=C1\Nc2ccccc2C1=O [drawing 508] ?
−0.5852

I am curious: what Results in α7+/− β-galactosidase assay value has been reported for Cc1[nH]c(/C=C2\C(=O)Nc3ccccc32)c(C)c1CCC(=O)O [drawing 509] ?
−0.6162

I am curious: what Results in α7+/− β-galactosidase assay value has been reported for O=C1Nc2ccccc2/C1=C1/Nc2ccccc2/C1=N\O [drawing 514] ?
−1.081

I am curious: what Results in α7+/− β-galactosidase assay value has been reported for O=C1Nc2ccccc2/C1=C1/Nc2ccccc2/C1=N\O [drawing 518] ?
−0.625

* * *

- Tested on: α7 integrin promoter
- Measurement notes: muscle cell-based assay: α7βgal+/− myoblasts/myotubes, LacZ reporter, β-galactosidase cleavage of FDG
- Set-up: species or system mouse; scale not given here
- Run parameters: Myoblasts, 10 uM
Readout label: Results in α7+/− β-galactosidase assay

API: value(readout=Results in α7+/− β-galactosidase assay, system=α7 integrin promoter) for record COc1ccccc1CC(=O)Nc1cc(S(=O)(=O)N2CCOCC2)ccc1N1CCOCC1 [drawing 699]
0.2162

API: value(readout=Results in α7+/− β-galactosidase assay, system=α7 integrin promoter) for record O=C(N[C@@H](Cc1c[nH]c2ccccc12)C(=O)O)C1CCN(S(=O)(=O)c2cccs2)CC1 [drawing 622]
−0.09397

API: value(readout=Results in α7+/− β-galactosidase assay, system=α7 integrin promoter) for record Cn1c(-c2ccccc2)cc2ccccc21 [drawing 627]
−0.02616

API: value(readout=Results in α7+/− β-galactosidase assay, system=α7 integrin promoter) for record Cc1ccccc1-n1c(S)nnc1Cc1cccs1 [drawing 520]
0.3732

API: value(readout=Results in α7+/− β-galactosidase assay, system=α7 integrin promoter) for record COc1ccc(/N=N/c2ccc(N)nc2N)cc1 [drawing 576]
0.01151

API: value(readout=Results in α7+/− β-galactosidase assay, system=α7 integrin promoter) for record Cc1cc(C)cc(OCC(=O)N/N=C/c2ccccn2)c1 [drawing 547]
−0.00591

API: value(readout=Results in α7+/− β-galactosidase assay, system=α7 integrin promoter) for record COc1cc(NC(=O)OCc2ccccc2)c2ncccc2c1 [drawing 557]
0.2347

API: value(readout=Results in α7+/− β-galactosidase assay, system=α7 integrin promoter) for record CCOc1ccc(Br)cc1S(=O)(=O)Nc1ccc(C(=O)Nc2ccccc2OC)cc1 [drawing 659]
−0.03674

API: value(readout=Results in α7+/− β-galactosidase assay, system=α7 integrin promoter) for record OC(c1nc2cc(F)ccc2[nH]1)C(O)c1nc2cc(F)ccc2[nH]1 (centres unmarked) [drawing 573]
−0.1055

API: value(readout=Results in α7+/− β-galactosidase assay, system=α7 integrin promoter) for record COc1ccccc1NS(=O)(=O)c1cc(NC(=O)c2ccc(Cl)nc2)ccc1N1CCCC1 [drawing 566]
0.0849

API: value(readout=Results in α7+/− β-galactosidase assay, system=α7 integrin promoter) for record CCOC(=O)C1(Cc2cccc(Cl)c2)CCCN(C(=O)CCSC)C1 (centres unmarked) [drawing 604]
−0.02503

API: value(readout=Results in α7+/− β-galactosidase assay, system=α7 integrin promoter) for record O=c1[nH]c(CN2CCCCC2)cc2c1C1(CCCCC1)Cc1ccccc1-2 [drawing 565]
−0.1479

API: value(readout=Results in α7+/− β-galactosidase assay, system=α7 integrin promoter) for record CCCCN(CC)Cc1ccc(C/N=C(\S)Nc2ccccc2F)o1 [drawing 521]
0.224

API: value(readout=Results in α7+/− β-galactosidase assay, system=α7 integrin promoter) for record Cc1cccc(NCC(=O)N/N=C/c2ccccn2)c1 [drawing 691]
0.1778

API: value(readout=Results in α7+/− β-galactosidase assay, system=α7 integrin promoter) for record CN(CCC1CCCCO1)C(=O)CCc1nnc(CCCCc2ccccc2)o1 (centres unmarked) [drawing 615]
−0.02349

API: value(readout=Results in α7+/− β-galactosidase assay, system=α7 integrin promoter) for record CCC(C)n1nc(O)cc1N (centres unmarked) [drawing 641]
−0.09102

API: value(readout=Results in α7+/− β-galactosidase assay, system=α7 integrin promoter) for record COc1ccc(CCNC(=O)Cn2nnc(C(=O)Nc3ccc(Br)cc3)c2N)cc1OC [drawing 533]
−0.0702

API: value(readout=Results in α7+/− β-galactosidase assay, system=α7 integrin promoter) for record O=C1c2ccccc2C(=O)C1(CC(O)O)c1ccccc1 [drawing 682]
−0.1644

API: value(readout=Results in α7+/− β-galactosidase assay, system=α7 integrin promoter) for record O=C1Nc2ccccc2/C1=C\c1cccn1-c1ccc(OC(F)(F)F)cc1 [drawing 653]
0.07821

API: value(readout=Results in α7+/− β-galactosidase assay, system=α7 integrin promoter) for record COc1ccc(NC(=O)C2(N(C(=O)Cn3nnnc3N)c3ccc(OC)cc3)CCCCC2)cc1 [drawing 532]
−0.1284

API: value(readout=Results in α7+/− β-galactosidase assay, system=α7 integrin promoter) for record O=C(N/N=C/c1c[nH]c2ccccc12)c1cc(Cl)ccc1O [drawing 617]
−0.05174

API: value(readout=Results in α7+/− β-galactosidase assay, system=α7 integrin promoter) for record CCOc1ccc2nc(Cl)sc2c1 [drawing 578]
−0.03134

API: value(readout=Results in α7+/− β-galactosidase assay, system=α7 integrin promoter) for record CC(=O)Nc1ccc(-n2c(C)nc(=O)c(-c3ccccc3)c2C)cc1 [drawing 668]
−0.1948

API: value(readout=Results in α7+/− β-galactosidase assay, system=α7 integrin promoter) for record Cc1nc(O)nc(O)c1S(=O)(=O)Nc1ccc(F)cc1Cl [drawing 545]
−0.00196

API: value(readout=Results in α7+/− β-galactosidase assay, system=α7 integrin promoter) for record N#C/C(=C/c1ccc(N2CCOCC2)o1)C(=O)Nc1ccccc1 [drawing 645]
0.05082

API: value(readout=Results in α7+/− β-galactosidase assay, system=α7 integrin promoter) for record CCOc1ccccc1Nc1cc2n(c(=O)n1)CCc1cc(OC)c(OC)cc1-2 [drawing 646]
−0.3859

API: value(readout=Results in α7+/− β-galactosidase assay, system=α7 integrin promoter) for record Cc1ccsc1-c1nnc(S)n1C1CCCCC1 [drawing 621]
−0.06828

API: value(readout=Results in α7+/− β-galactosidase assay, system=α7 integrin promoter) for record O=C1C2CCCN2C(=O)N1CCCN1CCN(c2cccc(Br)c2)CC1 (centres unmarked) [drawing 661]
0.05028

API: value(readout=Results in α7+/− β-galactosidase assay, system=α7 integrin promoter) for record COc1ccc(OC)c(S(=O)(=O)Nc2c(NC3CCCCC3)c3ccccc3oc2=O)c1 [drawing 656]
−0.031

API: value(readout=Results in α7+/− β-galactosidase assay, system=α7 integrin promoter) for record COc1ccccc1C(=O)OCc1ccc2sc(C)nc2c1 [drawing 586]
0.00833

API: value(readout=Results in α7+/− β-galactosidase assay, system=α7 integrin promoter) for record CCN1C(=O)/C(=C(/C#N)c2nc3ccccc3[nH]2)c2ccccc21 [drawing 524]
−0.1296

API: value(readout=Results in α7+/− β-galactosidase assay, system=α7 integrin promoter) for record O=C(Nc1ccccc1OC(=O)c1ccc(Cl)cc1)c1ccc(Cl)cc1 [drawing 609]
−0.1879

API: value(readout=Results in α7+/− β-galactosidase assay, system=α7 integrin promoter) for record CC(C)CN(C(=O)c1cccc(Cl)c1)c1c(N)n(Cc2ccccc2)c(=O)[nH]c1=O [drawing 544]
−0.05318

API: value(readout=Results in α7+/− β-galactosidase assay, system=α7 integrin promoter) for record CCCc1nnc(SCC(=O)NC2CCCC2)n1CCOC [drawing 675]
−0.107

API: value(readout=Results in α7+/− β-galactosidase assay, system=α7 integrin promoter) for record Cc1ccc(N2C(=O)C3NN=C(C(=O)OCc4ccccc4)C3C2=O)cc1 (centres unmarked) [drawing 600]
−0.01836

API: value(readout=Results in α7+/− β-galactosidase assay, system=α7 integrin promoter) for record CCc1nc(/C=C2\C(=O)Nc3ccccc32)c[nH]1 [drawing 602]
0.1565

API: value(readout=Results in α7+/− β-galactosidase assay, system=α7 integrin promoter) for record O=C1Cc2ccccc2/C1=C\c1ccc([N+](=O)[O-])cc1 [drawing 703]
0.1452

API: value(readout=Results in α7+/− β-galactosidase assay, system=α7 integrin promoter) for record CSc1ccc(S(=O)(=O)NCc2ccccc2)cc1 [drawing 590]
0.6252
